- System: Enterobacter cloacae ATCC 27508
- method-notes: Antibacterial activity, MIC
- Assay type: cell-based
- conditions: ATCC27508, ATCC 27508, agar two-fold dilution, 37° C., 20 hours, read-out: MIC
- Method: Also, the in vitro antibacterial activity was determined by the by a two-fold dilution method as described below: That is, the two-fold serial dilutions of the compound were made dispersed in Muller-Hinton agar medium. 2 μl of standard test strain which had the 10^7 CFU per ml was inoculated on the medium, and was incubated at 37° C. for 20 hours.
The entries below are paired with their reported MIC.
Supply the numeric figure in µg/mL, leaving out any unit text.

Before answering, review these 3 worked examples.
# compound, MIC / µg/mL
records = [
    ("CCC[n+]1c(N)cc(N)nc1SCC1=C(C(=O)[O-])N2C(=O)C(NC(=O)/C(=N\\OC(C)(C)C(=O)O)c3nsc(N)n3)C2SC1 (stereo not drawn)", 0.031),
    ("CC[n+]1c(N)cc(N)nc1SCC1=C(C(=O)[O-])N2C(=O)C(NC(=O)/C(=N\\OC(C)(C)C(=O)O)c3nsc(N)n3)C2SC1 (stereo not drawn)", 0.063),
    ("CCCC[n+]1c(N)cc(N)nc1SCC1=C(C(=O)[O-])N2C(=O)C(NC(=O)/C(=N\\OC(C)(C)C(=O)O)c3nsc(N)n3)C2SC1 (stereo not drawn)", 0.063),
]

MIC on Enterobacter cloacae ATCC 27508 for CCc1c(N)nc(SCC2=C(C(=O)[O-])N3C(=O)C(NC(=O)/C(=N\OC(C)(C)C(=O)O)c4csc(N)n4)C3SC2)[n+](CC)c1N (stereo not drawn) is 0.031

MIC on Enterobacter cloacae ATCC 27508 for CC(O/N=C(\C(=O)NC1C(=O)N2C(C(=O)[O-])=C(CSc3nc(N)cc(N)[n+]3C)CSC12)c1csc(N)n1)C(=O)O (stereo not drawn) is 0.016

MIC on Enterobacter cloacae ATCC 27508 for C=CCO/N=C(\C(=O)NC1C(=O)N2C(C(=O)[O-])=C(CSc3nc(N)cc(N)[n+]3CC)CSC12)c1csc(N)n1 (stereo not drawn) is 0.016

MIC on Enterobacter cloacae ATCC 27508 for COc1cccc(OC)c1-[n+]1c(N)cc(N)nc1SCC1=C(C(=O)[O-])N2C(=O)C(NC(=O)/C(=N\OC(C)(C)C(=O)O)c3csc(N)n3)C2SC1 (stereo not drawn) is 0.25

MIC on Enterobacter cloacae ATCC 27508 for CC(C)(O/N=C(\C(=O)NC1C(=O)N2C(C(=O)[O-])=C(CSc3nc(N)cc(N)[n+]3-c3ccc(O)cc3)CSC12)c1csc(N)n1)C(=O)O (stereo not drawn) is 0.063

MIC on Enterobacter cloacae ATCC 27508 for C=CCO/N=C(\C(=O)NC1C(=O)N2C(C(=O)[O-])=C(CSc3nc(N)cc(N)[n+]3C)CSC12)c1csc(N)n1 (stereo not drawn) is 0.031

MIC on Enterobacter cloacae ATCC 27508 for CCO/N=C(\C(=O)NC1C(=O)N2C(C(=O)[O-])=C(CSc3nc(N)cc(N)[n+]3C)CSC12)c1nsc(N)n1 (stereo not drawn) is 0.016

MIC on Enterobacter cloacae ATCC 27508 for CO/N=C(\C(=O)NC1C(=O)N2C(C(=O)[O-])=C(CSc3nc(N)cc(N)[n+]3N)CSC12)c1csc(N)n1 (stereo not drawn) is 0.016

MIC on Enterobacter cloacae ATCC 27508 for CC(C)(O/N=C(\C(=O)NC1C(=O)N2C(C(=O)[O-])=C(CSc3nc(N)cc(N)[n+]3N)CSC12)c1nsc(N)n1)C(=O)O (stereo not drawn) is 0.031

###

- method-notes: In-vivo absorbency (plasma concentrations & pharmacokinetic parameters)
- Parameters: species or system SD rat (male)
- conditions: plasma; 60 min; SD male rat, iv 20 mg/kg; read-out: Plasma Conc.
outcome-measure: concentration at 1 h (ng/mL)
Supply the numeric figure in ng/mL, leaving out any unit text.

Before answering, review these 5 worked examples.
# molecule, concentration at 1 h (ng/mL)
rows = [
    ("CCc1c(N)nc(SCC2=C(C(=O)[O-])N3C(=O)C(NC(=O)/C(=N\\OC(C)(C)C(=O)O)c4csc(N)n4)C3SC2)[n+](C)c1N (stereo not drawn)", 7700),
    ("CCO/N=C(\\C(=O)NC1C(=O)N2C(C(=O)[O-])=C(CSc3nc(N)cc(N)[n+]3N)CSC12)c1csc(N)n1 (stereo not drawn)", 8800),
    ("CC(C)(O/N=C(\\C(=O)NC1C(=O)N2C(C(=O)[O-])=C(CSc3nc(N)cc(N)[n+]3N)CS[C@H]12)c1csc(N)n1)C(=O)O (stereo partly drawn)", 2400),
    ("CC[n+]1c(N)cc(N)nc1SCC1=C(C(=O)[O-])N2C(=O)C(NC(=O)/C(=N\\OCC(=O)O)c3csc(N)n3)C2SC1 (stereo not drawn)", 8700),
    ("CCc1c(N)nc(SCC2=C(C(=O)[O-])N3C(=O)C(NC(=O)/C(=N\\OC(C)(C)C(=O)O)c4csc(N)n4)C3SC2)[n+](CC)c1N (stereo not drawn)", 7000),
]

Data point: CC(O/N=C(\C(=O)NC1C(=O)N2C(C(=O)[O-])=C(CSc3nc(N)cc(N)[n+]3C)CSC12)c1csc(N)n1)C(=O)O (stereo not drawn) ; concentration at 1 h = 2600

###

- Test system: Citrobacter freundii ATCC 8090
- method-notes: Antibacterial activity, MIC
- Format: cell-based
- conditions: ATCC8090, ATCC 8090, agar two-fold dilution, 37° C., 20 hours, read-out: MIC
The entries below are paired with their reported log10 MIC.
Values reflect log10 of reported MIC (µg/mL).

Before answering, review these 2 worked examples.
# compound, log10 MIC
rows = [
    ("C=CCO/N=C(\\C(=O)NC1C(=O)N2C(C(=O)[O-])=C(CSc3nc(N)cc(N)[n+]3C)CSC12)c1csc(N)n1 (stereo not shown) [Compound I-49]", -0.60),
    ("CO/N=C(\\C(=O)NC1C(=O)N2C(C(=O)[O-])=C(CSc3nc(N)cc(N)[n+]3C)CSC12)c1nsc(N)n1 (stereo not shown) [Compound I-24]", -0.89),
]

Data point: CCO/N=C(\C(=O)NC1C(=O)N2C(C(=O)[O-])=C(CSc3nc(N)cc(N)[n+]3CC)CSC12)c1csc(N)n1 (stereo not shown) [Compound I-12] ; log10 MIC = -1.20

Data point: CCO/N=C(\C(=O)NC1C(=O)N2C(C(=O)[O-])=C(CSc3nc(N)cc(N)[n+]3C)CSC12)c1csc(N)n1 (stereo not shown) [Compound I-11] ; log10 MIC = -1.20

Data point: C[n+]1c(N)cc(N)nc1SCC1=C(C(=O)[O-])N2C(=O)C(NC(=O)/C(=N\OC(C)(C)C(=O)O)c3csc(N)n3)[C@H]2SC1 (stereo partly shown) [Compound I-1] ; log10 MIC = -1.20

Data point: CC[n+]1c(N)cc(N)nc1SCC1=C(C(=O)[O-])N2C(=O)C(NC(=O)/C(=N\OC(C)C(=O)O)c3csc(N)n3)C2SC1 (stereo not shown) [Compound I-5] ; log10 MIC = -1.20

Data point: COc1cccc(OC)c1-[n+]1c(N)cc(N)nc1SCC1=C(C(=O)[O-])N2C(=O)C(NC(=O)/C(=N\OC(C)(C)C(=O)O)c3csc(N)n3)C2SC1 (stereo not shown) [Compound I-43] ; log10 MIC = 0.00

###

- System: Staphylococcus aureus methicillin susceptible
- method-notes: Antibacterial activity against clinically isolated strains, MIC
- Format: cell-based
- conditions: methicillin susceptible, 42 clinical isolates, broth microdilution test
The entries below are paired with their reported MIC50.

Before answering, review these 4 worked examples.
# compound, outcome-measure, observed-value
data = [
    ("C[n+]1c(N)cc(N)nc1SCC1=C(C(=O)[O-])N2C(=O)C(NC(=O)/C(=N\\OC(C)(C)C(=O)O)c3csc(N)n3)[C@H]2SC1 (stereo partly drawn) [Compound I-1]", "MIC50", "2 µg/mL"),
    ("CCO/N=C(\\C(=O)NC1C(=O)N2C(C(=O)[O-])=C(CSc3nc(N)cc(N)[n+]3C)CSC12)c1nsc(N)n1 (stereo not drawn) [Compound I-20]", "MIC50", "0.5 µg/mL"),
    ("CC[n+]1c(N)cc(N)nc1SCC1=C(C(=O)[O-])N2C(=O)C(NC(=O)/C(=N\\OC(C)(C)C(=O)O)c3csc(N)n3)C2SC1 (stereo not drawn) [Compound I-2]", "MIC50", "2 µg/mL"),
    ("CCC[n+]1c(N)cc(N)nc1SCC1=C(C(=O)[O-])N2C(=O)C(NC(=O)/C(=N\\OC(C)C(=O)O)c3csc(N)n3)C2SC1 (stereo not drawn) [Compound I-45]", "MIC50", "2 µg/mL"),
]

Data point: CCO/N=C(\C(=O)NC1C(=O)N2C(C(=O)[O-])=C(CSc3nc(N)cc(N)[n+]3N)CSC12)c1csc(N)n1 (stereo not drawn) [Compound I-16] ; MIC50 = 0.25 µg/mL

Data point: CC[n+]1c(N)cc(N)nc1SCC1=C(C(=O)[O-])N2C(=O)C(NC(=O)/C(=N\OC(C)C(=O)O)c3csc(N)n3)C2SC1 (stereo not drawn) [Compound I-5] ; MIC50 = 4 µg/mL
